Please respond with reported pKi for every item in the list.
Target: GABA A α5 (α5β3γ2) (Homo sapiens, UniProt P18507+P31644)
Construct: expressed in transfected cells; host or cells: HEK293, transiently transfected; membrane preparation
Experiment: [3H]flumazenil competition binding, human GABA A α5 receptor
Conditions: human receptor α5β3γ2 transiently transfected in HEK293 cells; competition for [3H]flumazenil 0.5 nM; 1 hour at 4° C.; means of two determinations; read-out: hKi GABA A α5
Expect pKi as a plain number equal to -log10 of the molar concentration.

Ask: Reported pKi, compound `CCCCc1noc(C)c1CCc1ncc(C(=O)N[C@@H](C)CO)s1` : ____
Reply: 7.36

Ask: Reported pKi, compound `Cc1nc(CCc2c(-c3ccc(F)cn3)noc2C)sc1C(=O)NCC1CC1` : ____
Reply: 7.80

Ask: Reported pKi, compound `CCCCc1noc(C)c1/C=C/c1nc(C)c(C(=O)NC(CO)CO)s1` : ____
Reply: 8.72

Ask: Reported pKi, compound `CCCCc1noc(C)c1/C=C/c1nc(C)c(C(=O)NC2CC2)s1` : ____
Reply: 8.29

Ask: Reported pKi, compound CCCCc1noc(C)c1CCc1ncc(C(=O)NCC(C)O)s1 (centres unmarked) : ____
Reply: 7.35

====

Molecular target: GABA A α5 (α5β3γ2) (Homo sapiens, UniProt P18507+P31644)
Construct: expressed in transfected cells; host or cells: HEK293, transiently transfected; membrane preparation
Assay: [3H]flumazenil competition binding, human GABA A α5 receptor
Conditions: human receptor α5β3γ2 transiently transfected in HEK293 cells; competition for [3H]flumazenil 0.5 nM; 1 hour at 4° C.; means of two determinations; read-out: hKi GABA A α5
Please respond with reported Ki for every item in the list.
Quick note: give the figure in nM, leave out the unit.

Ask: Reported Ki, molecule Cc1onc(-c2ccccn2)c1CCc1ncc(C(N)=O)s1 [Example 25] : ____
Reply: 33.6

Ask: Reported Ki, molecule CCCCc1noc(C)c1/C=C/c1nc(C)c(C(N)=O)s1 [Example 100] : ____
Reply: 2

Ask: Reported Ki, molecule CCCCc1noc(C)c1/C=C/c1nc(C)c(C(=O)N[C@@H](CC)CO)s1 [Example 106] : ____
Reply: 2.1

Ask: Reported Ki, molecule Cc1nc(CCc2c(-c3ccccn3)noc2C)sc1C(=O)N1CCSCC1 [Example 17] : ____
Reply: 42.8

Ask: Reported Ki, molecule Cc1nc(/C=C/c2c(-c3ccc(F)cn3)noc2C)sc1C(=O)NC1CC1 [Example 73] : ____
Reply: 1.6

Ask: Reported Ki, molecule COC(=O)c1sc(CCc2c(-c3ccccn3)noc2C)nc1C [Example 8] : ____
Reply: 20.3

Ask: Reported Ki, molecule Cc1nc(CCc2c(-c3ccccc3)noc2C)sc1C(=O)NC(C)CO (racemic) [Example 3] : ____
Reply: 7.9

Ask: Reported Ki, molecule Cc1nc(CCc2c(-c3ccccc3)noc2C)sc1C(=O)NCC(C)(C)O [Example 4] : ____
Reply: 37.8

Ask: Reported Ki, molecule CCNC(=O)c1cnc(/C=C/c2c(-c3ccc(F)cn3)noc2C)s1 [Example 87] : ____
Reply: 4

Ask: Reported Ki, molecule CCCCc1noc(C)c1CCc1nc(C)c(C(=O)NC(C)CO)s1 (stereo not shown) [Example 50] : ____
Reply: 16.8

Ask: Reported Ki, molecule COC(=O)c1cnc(CCc2c(-c3ccccn3)noc2C)s1 [Example 21] : ____
Reply: 40.2

Ask: Reported Ki, molecule Cc1onc(-c2ccc(F)cn2)c1/C=C/c1ncc(C(=O)NCCO)s1 [Example 85] : ____
Reply: 5.1

Ask: Reported Ki, molecule CCNC(=O)c1sc(CCc2c(-c3ccc(F)cn3)noc2C)nc1C [Example 38] : ____
Reply: 10.8

Ask: Reported Ki, molecule Cc1nc(CCc2conc2-c2ccccn2)sc1C(=O)NCC(F)(F)F [Example 20] : ____
Reply: 90.5

Ask: Reported Ki, molecule CCCCc1noc(C)c1/C=C/c1nc(C)c(C(=O)N[C@H]2CCC[C@@H]2O)s1 [Example 111] : ____
Reply: 5.5

Ask: Reported Ki, molecule Cc1nc(/C=C/c2conc2-c2ccc(F)cn2)sc1C(=O)NC1CCOCC1 [Example 90] : ____
Reply: 24.8

Ask: Reported Ki, molecule Cc1onc(-c2ccc(F)cn2)c1CCc1ncc(C(=O)NCC(F)(F)F)s1 [Example 44] : ____
Reply: 15.7

Ask: Reported Ki, molecule CCCCc1noc(C)c1/C=C/c1nc(C)c(C(=O)Nc2cnn(C)c2)s1 [Example 112] : ____
Reply: 1.3

Ask: Reported Ki, molecule CCCCc1noc(C)c1CCc1nc(C)c(C(=O)NC2CCOCC2)s1 [Example 51] : ____
Reply: 11.1

Ask: Reported Ki, molecule CCNC(=O)c1sc(CCc2c(-c3ccccn3)noc2C)nc1C [Example 15] : ____
Reply: 12

Ask: Reported Ki, molecule Cc1onc(-c2ccc(F)cn2)c1/C=C/c1ncc(C(=O)N2CCOCC2)s1 [Example 86] : ____
Reply: 31.2

Ask: Reported Ki, molecule Cc1nc(CCc2c(-c3ccccn3)noc2C)sc1C(=O)NC1CCOCC1 [Example 9] : ____
Reply: 5.7

Ask: Reported Ki, molecule CCCCc1noc(C)c1CCc1nc(C)c(C(=O)NC2CCOC2)s1 (racemic) [Example 52] : ____
Reply: 15.2

Ask: Reported Ki, molecule Cc1onc(-c2ccccc2)c1COc1ncc(C(=O)NC(C)C)s1 [Example 127] : ____
Reply: 2.2

Ask: Reported Ki, molecule Cc1nc(CCc2c(-c3ccccn3)noc2C)sc1C(=O)NCC1CC1 [Example 12] : ____
Reply: 13.4

Ask: Reported Ki, molecule CCCCc1noc(C)c1/C=C/c1nc(C)c(C(=O)NCCO)s1 [Example 95] : ____
Reply: 2.2

Ask: Reported Ki, molecule Cc1onc(-c2ccccn2)c1CCc1ncc(C(=O)NCC2CC2)s1 [Example 26] : ____
Reply: 34.7

Ask: Reported Ki, molecule CCCCc1noc(C)c1CCc1nc(C)c(C(=O)NCC(C)(C)O)s1 [Example 49] : ____
Reply: 43.3

Ask: Reported Ki, molecule Cc1nc(/C=C/c2conc2-c2ccc(F)cn2)sc1C(=O)NCC1CC1 [Example 92] : ____
Reply: 40.4

Ask: Reported Ki, molecule Cc1nc(/C=C/c2c(-c3ccc(F)cn3)noc2C)sc1C(=O)NCC1CC1 [Example 75] : ____
Reply: 1.8

Ask: Reported Ki, molecule CNC(=O)c1cnc(CCc2c(-c3ccc(F)cn3)noc2C)s1 [Example 47] : ____
Reply: 26.3

Ask: Reported Ki, molecule Cc1onc(-c2ccccc2)c1COc1ncc(C(=O)NC2CCOCC2)s1 [Example 128] : ____
Reply: 1.8

Ask: Reported Ki, molecule CCCCc1noc(C)c1CCc1nc(C)c(C(=O)NC(CO)CO)s1 [Example 53] : ____
Reply: 18.7

Ask: Reported Ki, molecule Cc1nc(CCc2c(-c3ccccc3)noc2C)sc1C(=O)NC(C)C [Example 1] : ____
Reply: 5.7

Ask: Reported Ki, molecule Cc1onc(-c2ccc(F)cn2)c1/C=C/c1ncc(C(N)=O)s1 [Example 81] : ____
Reply: 5.5

Ask: Reported Ki, molecule Cc1onc(-c2ccc(F)cn2)c1/C=C/c1ncc(C(=O)NCC2CC2)s1 [Example 82] : ____
Reply: 4.7

Ask: Reported Ki, molecule Cc1nc(CCc2c(-c3ccc(F)cn3)noc2C)sc1C(=O)NCC(F)(F)F [Example 35] : ____
Reply: 6.6

====

Biological target: GABA A α5 (α5β3γ2) (Homo sapiens, UniProt P18507+P31644)
Construct: expressed in transfected cells; host or cells: HEK293, transiently transfected; membrane preparation
Test: [3H]flumazenil competition binding, human GABA A α5 receptor
Conditions: human receptor α5β3γ2 transiently transfected in HEK293 cells; competition for [3H]flumazenil 0.5 nM; 1 hour at 4° C.; means of two determinations; read-out: hKi GABA A α5
Protocol: Membrane Preparation and Binding Assay The affinity of compounds at GABA A receptor subtypes was measured by competition for [3H]flumazenil (85 Ci/mmol; Roche) binding to HEK293 cells expressing rat (stably transfected) or human (transiently transfected) receptors of compositional α1β3γ2, α2β3γ2, α3β3γ2 and α5β3γ2. […]
Hi! Just check whether Ki is below 0.009 µM. Below gives class 1, equal or above gives class 0.

Ask: Does the reported Ki of the following molecule sit strictly below 0.009 µM? Cc1onc(-c2ccccn2)c1CCc1ncc(C(=O)NC2CCS(=O)(=O)C2)s1 (centres unmarked)
Reply: class 0

Ask: Does the reported Ki of the following molecule sit strictly below 0.009 µM? `Cc1onc(-c2ccccc2)c1COc1ncc(C(=O)NCCO)s1`
Reply: class 1

Ask: Does the reported Ki of the following molecule sit strictly below 0.009 µM? `CCNC(=O)c1cnc(CCc2c(-c3ccc(F)cn3)noc2C)s1`
Reply: class 0

Ask: Does the reported Ki of the following molecule sit strictly below 0.009 µM? `CCCCc1noc(C)c1/C=C/c1ncc(C(=O)NC(C)C)s1`
Reply: class 1

Ask: Does the reported Ki of the following molecule sit strictly below 0.009 µM? `Cc1nc(CCc2conc2-c2ccccn2)sc1C(=O)NC1CCOCC1`
Reply: class 0

Ask: Does the reported Ki of the following molecule sit strictly below 0.009 µM? `Cc1onc(-c2ccccn2)c1CCc1ncc(C(=O)NC(C)C)s1`
Reply: class 0

Ask: Does the reported Ki of the following molecule sit strictly below 0.009 µM? `Cc1nc(/C=C/c2c(-c3ccc(F)cn3)noc2C)sc1C(=O)NC1CCOCC1`
Reply: class 1
